All values here come from ChEMBL document CHEMBL1201862.

Test system: U-251
ASSAY_COMMENT: NCI tumour cell line growth inhibition, 48 h
Active and inactive are the calls of the source. No stated cut-off is given here; in the data, active = GI50 up to about 1.1 µM and inactive = higher.
Returns: one label drawn from y = active, n = inactive

C[C@]12CC[C@@H]3c4cc(C=O)c(OCc5ccccc5)cc4CC[C@H]3[C@@H]1CCC2OCc1ccccc1 (some centres undefined)    n

Now let's try a different one.
Dear colleague, could you share the recorded outcome for "Cc1c(C)c2c(c(N)c1C#N)C(=O)N(Nc1ccccc1)C2=O" when you have a moment?
n

----------
System: SF-539
ASSAY_COMMENT: NCI tumour cell line growth inhibition, 48 h
The source made the active and inactive calls. Cut-off read from the data, not from the text of the source: active = GI50 up to about 1.1 µM and inactive = higher.
OBSERVED_PROPERTY: GI50

// worked examples, GI50 included
CN(Cc1cnc2c(n1)C(N)=NN(N)N2)c1ccc(C(=O)NC(CCP(=O)(O)O)C(=O)O)cc1 (stereo unspecified)    3.47 µM (inactive)
O=C(O)CN(c1ccccc1)S(=O)(=O)c1ccc(Cl)cc1    > 100 µM (inactive)
COC(=O)c1ccc(NCC2=CC(=O)c3ccccc3C2=O)cc1    23.4 µM (inactive)
Nc1cc([N+](=O)[O-])ccc1C(=O)N1CCC[C@H]1CO    > 100 µM (inactive)
C[C@H](OCc1ccccc1)C(=O)N1CCS(=O)(=O)N2CCC[C@@H]2C1=O    > 100 µM (inactive)
CCN(CC)CCCNc1nncc2c(C)c3[nH]c4ccc(OC)cc4c3cc12    0.268 µM (active)
O=C(O)CS    > 100 µM (inactive)
COc1ccc(/C=N/n2c(Cc3ccc(Cl)cc3)n[nH]c2=O)cc1    22.1 µM (inactive)
Cc1ccc(NC(=O)C(=O)CC(=O)c2c(C)[n+]([O-])c3ccccc3[n+]2[O-])cc1C    > 100 µM (inactive)
CCOC(CN(C)C(=O)OCC(Cl)(Cl)Cl)OCC    > 100 µM (inactive)

Reported GI50 for "COc1ccc(/C=C/C(=O)c2ccccc2)cc1OC" was 11.1 µM (inactive)

Reported GI50 for "CCOc1ccccc1NC(=O)C1=C(C)NC(C)=C(C(=O)Nc2ccccc2OCC)C1c1ccc([N+](=O)[O-])cc1" was > 100 µM (inactive)

Reported GI50 for "C/C(=N\NS(=O)(=O)c1ccc(C)cc1)c1ccccn1" was 40.8 µM (inactive)

Reported GI50 for "CCOC(=O)C1=C(N)N2C(=N[C@H]3CCCC[C@@H]32)N=C1" was > 100 µM (inactive)

Reported GI50 for CCN(CC)CCCC(C)NC(=O)c1ccc2c(c1)C(=O)c1ccccc1C2=O (stereo unspecified) was 19.2 µM (inactive)

Reported GI50 for "O=C(Nc1nc2ncn(CCNCCn3cnc4nc(NC(=O)c5ccccc5)[nH]c(=O)c43)c2c(=O)[nH]1)c1ccccc1" was > 100 µM (inactive)

Reported GI50 for "N#CC(C#N)/N=N/c1ccc(-c2nc3ccccc3s2)cc1" was 9.33 µM (inactive)
